The measured values listed here are drawn from the supplement of paper PMC4466140.

- tgt: ScBzz1-D1
- test-description: SPOT peptide array binding signal intensity (averaged, normalized) (arbitrary units (background-subtracted, floor 0; scale differs between SH3 domains)); higher = stronger binding of the SH3 domain to the peptide
Cut-off 10 on SPOT peptide array binding signal intensity, inclusive. At or above means TRUE; below means FALSE.

Here are 6 binders together with their reported answers.
{"binder": "ATNVPVAPPPPPASL", "label": "FALSE"}
{"binder": "RFKRHRLEFPFNESE", "label": "TRUE"}
{"binder": "VNIPSPSSSPPPIPK", "label": "FALSE"}
{"binder": "LPPPPPPPPPPPLPQ", "label": "TRUE"}
{"binder": "TKIRRRPQQPLTDFT", "label": "TRUE"}
{"binder": "FFRRSELYLPNSSKA", "label": "TRUE"}

Let's switch to this binder now.
Exercise: In plain terms: is recorded SPOT peptide array binding signal intensity at least 10 for "PPPPPPPPPPPLPQS" ?
Key: FALSE
